Test system: A549/ATCC NSCLC
experiment-description: NCI-60 one-dose screen, 48 h
test-conditions: 10 µM unless noted
The panel holds about 83,000 compounds, 20% with a hit somewhere; the sample as a whole holds those more often. Calls of active or inactive are those of the source. How the source made its calls: active means growth percent below 10; inactive means the rest.
Select the matching outcome among T = active, F = inactive

Record excerpt, results attached:
molecule_smiles=O=C(Nc1ccc(Cl)c(Cl)c1)Nc1ccccc1O category_label=F
molecule_smiles=CC(C)c1ccc(Nc2n[nH]c(=S)s2)cc1 category_label=F
molecule_smiles=CCN1/C(=C/C(C)=C/c2sc3ccc4ccccc4c3[n+]2CC)Sc2ccc3ccccc3c21 category_label=T
molecule_smiles=c1ccc(-c2cccc(-c3ccccn3)n2)nc1 category_label=T
molecule_smiles=CCOC(=O)C1=C(C(=O)c2ccccc2)C(c2cccc([N+](=O)[O-])c2)C(C(=O)c2ccccc2)=C(C(=O)OCC)N1 category_label=F
molecule_smiles=Cc1onc(-c2ccccc2)c1C(=O)N/N=C/c1cc(Cl)cc(Cl)c1O category_label=F

Exercise: GET /call?item= O=C(Nc1ccc(Cl)c(Cl)c1)OCc1ccco1 returns the recorded outcome of this test.
Solution: F

Exercise: GET /call?item= CC(C)(C)c1ccc(O)c(-c2ccccc2)c1 returns the recorded outcome of this test.
Solution: F

Exercise: GET /call?item= O=C(NNc1ccccc1)OCc1ccccc1 returns the recorded outcome of this test.
Solution: F

Exercise: GET /call?item= COc1cc(-c2ccc(-[n+]3nc(-c4ccc([N+](=O)[O-])cc4)nn3-c3ccc([N+](=O)[O-])cc3)c(OC)c2)ccc1-[n+]1nc(-c2ccc([N+](=O)[O-])cc2)nn1-c1ccc([N+](=O)[O-])cc1 returns the recorded outcome of this test.
Solution: F

Exercise: GET /call?item= Nc1nc(N)c2cc(Sc3cccc(C(F)(F)F)c3)ccc2n1 returns the recorded outcome of this test.
Solution: F

Exercise: GET /call?item= COC(=O)c1cc([N+](=O)[O-])cc([N+](=O)[O-])c1Cl returns the recorded outcome of this test.
Solution: F

Exercise: GET /call?item= Nc1ccc(Oc2ccccc2)c(Cl)c1 returns the recorded outcome of this test.
Solution: F

====

Test system: MDA-MB-435 melanoma
experiment-description: NCI-60 one-dose screen, 48 h (100 = growth as untreated, 0 = no growth, -100 = all killed)
test-conditions: 10 µM unless noted
The panel holds about 83,000 compounds, 20% with a hit somewhere; the sample as a whole holds those more often.
Here, each record is paired with measured growth data.
Output spec: scalar in %, unitless text.

Past entries and their recorded results:
molecule=NNc1ccc(Cl)cc1Cl reported_property=growth reported=96.6
molecule=CCOC(=O)/C(=C\c1ccc2ccccc2c1)P(=O)(OCC)OCC reported_property=growth reported=24

Exercise: Recorded growth of c1ccc(-c2cc3cc4ccccc4cn3c2)cc1 , please.
Solution: 91.4

Exercise: Recorded growth of CSc1nc(C)c(C(=O)CCN2CCN(c3ccccn3)CC2)s1 , please.
Solution: 104

Exercise: Recorded growth of CC(C)=C1C=C2CC[C@@H]3[C@](C)(CCC[C@@]3(C)C(=O)O)[C@H]2CC1 , please.
Solution: 101

====

Here, each record is paired with measured growth data.
System: MDA-MB-435 melanoma
experiment-description: NCI-60 one-dose screen, 48 h (100 = growth as untreated, 0 = no growth, -100 = all killed)
test-conditions: 10 µM unless noted
Compounds without any hit were thinned out: in the full panel of roughly 83,000, 20% have a hit.
Output spec: scalar in %, unitless text.

molecule="CCOc1ccc(C(CN2CCOCC2)C(C)=O)cc1OC (centres undefined)" reported=97.6
molecule=COc1ccc(/C=C2/C(=O)ON=C2C)cc1 reported=109
molecule=CC(C)c1ccc(C(=O)OC2CCCC2)cc1 reported=101
molecule="Oc1c(Cl)cc(Cl)cc1C=NCC1CCC(CN=Cc2cc(Cl)cc(Cl)c2O)CC1 (centres undefined)" reported=88.8
molecule="CC1(C)OCC(COC(c2ccccc2)(c2ccccc2)c2ccccc2)O1 (centres undefined)" reported=106

Now turn to the next molecule.
Exercise: Recorded growth of CC1(C)N=c2cc3c(cc2N1c1ccc(Cl)cc1)=Nc1ccccc1N3c1ccc(Cl)cc1 , please.
Solution: 77.9

====

Test system: SF-268 CNS
experiment-description: NCI-60 one-dose screen, 48 h (100 = growth as untreated, 0 = no growth, -100 = all killed)
test-conditions: 10 µM unless noted
Compounds without any hit were thinned out: in the full panel of roughly 83,000, 20% have a hit.
Here, each record is paired with measured growth data.
Output spec: scalar in %, unitless text.

Exercise: Recorded growth of Oc1c(C(Nc2ccccc2)c2ccccc2)ccc2cccnc12 (stereo unspecified) , please.
Solution: 33.4

====

Tested on: MCF7 breast
experiment-description: NCI-60 one-dose screen, 48 h (100 = growth as untreated, 0 = no growth, -100 = all killed)
test-conditions: 10 µM unless noted
This is part of a sample that, as a whole, favours compounds with a hit. Of some 83,000 tested, about 20% had one in any assay.
Binned growth; ranges: interval 1: < 20%; interval 2: ≥ 20% and < 90%; interval 3: ≥ 90%

Record excerpt, results attached:
compound="CCC(C)C(N)C(=O)NC(CC(N)=O)C(=O)NC(CC(C)C)C(=O)NC(CCCCN)C(=O)NC(C)C(=O)NC(CC(C)C)C(=O)NC(C)C(=O)NC(C)C(=O)NC(CC(C)C)C(=O)NC(C)C(=O)NC(CCCCN)C(=O)NC(CCCCN)C(=O)NC(C(=O)NC(CC(C)C)C(N)=O)C(C)CC (centres undefined)" category_label="interval 3"
compound=CCCOC(=O)c1nc(N(CC2CCCCC2)C(=O)NC)sc1/N=C/c1ccccc1 category_label="interval 1"
compound=CCCCCCCCCCCCN1C(C)=CS/C1=C\C=C\c1scc(C)[n+]1CCCCCCCCCCCC category_label="interval 1"
compound=Oc1ccc(Nc2ccc3ccccc3c2)cc1 category_label="interval 2"
compound=O=C(O)c1cccc2cccc(-c3c4ccc(=O)c(O)c-4oc4c(O)c(O)ccc34)c12 category_label="interval 3"

Exercise: Please report the category associated with O=C(Cc1ccccc1)C(F)(F)F , nothing else.
Solution: interval 3

Exercise: Please report the category associated with CN1CCC(c2ccccc2)(c2ccccc2)C(=O)C1 , nothing else.
Solution: interval 2

Exercise: Please report the category associated with S=c1[nH]c2cc(Cl)ccc2s1 , nothing else.
Solution: interval 3

Exercise: Please report the category associated with CCCC[n+]1c(/C=C\c2c(OC)cc(OC)cc2OC)ccc2ccccc21 , nothing else.
Solution: interval 1

Exercise: Please report the category associated with CN(C)c1ccc(/C=C/c2nccc3ccccc23)cc1 , nothing else.
Solution: interval 2

Exercise: Please report the category associated with CCCCCCC1N=C(N)N=C(N)N1c1cccc(Cl)c1 (centres undefined) , nothing else.
Solution: interval 2

Exercise: Please report the category associated with CCC1CCCCN1C(=S)N/N=C(\C)c1ccccn1 (centres undefined) , nothing else.
Solution: interval 1

Exercise: Please report the category associated with O=[N+]([O-])CC(O)c1ccccc1 (centres undefined) , nothing else.
Solution: interval 2

====

System: OVCAR-5 ovarian
experiment-description: NCI-60 one-dose screen, 48 h (100 = growth as untreated, 0 = no growth, -100 = all killed)
test-conditions: 10 µM unless noted
This is part of a sample that, as a whole, favours compounds with a hit. Of some 83,000 tested, about 20% had one in any assay.
Here, each record is paired with measured growth data.
Output spec: scalar in %, unitless text.

Past entries and their recorded results:
molecule_smiles=Cc1cc(C)c(C#N)c(Sc2nc(C)c([N+](=O)[O-])c(C)c2C#N)n1 reported=90.1
molecule_smiles=O=C1c2ccccc2C(=O)c2c(O)c(Cl)cc(O)c21 reported=92.6

Now turn to the next compound.
Exercise: Recorded growth of O=C(Nc1cccc(C(F)(F)F)c1)Oc1ccc(Cl)c2cccnc12 , please.
Solution: 87.7

====

Here, each record is paired with measured growth data.
Tested on: MALME-3M melanoma
experiment-description: NCI-60 one-dose screen, 48 h (100 = growth as untreated, 0 = no growth, -100 = all killed)
test-conditions: 10 µM unless noted
About 83,000 compounds went through this panel and 20% of them were active in at least one assay; those are over-represented in the sample as a whole.
Output spec: scalar in %, unitless text.

Past entries and their recorded results:
molecule_smiles=CN=C(N)N/N=C(\C)c1ccc2c(c1)Cc1ccccc1-2 measured_target="MALME-3M melanoma" reported=-85
molecule_smiles=CC1(C)CCCC2=C1C(=O)N(SC(Cl)(Cl)Cl)C2=O measured_target="MALME-3M melanoma" reported=75.9

Now turn to the next compound.
Exercise: Recorded growth of CCCCCCCCCCCC[n+]1ccc(CCCCCCCCC)cc1 , please.
Solution: -76.4

====

Here, each record is paired with measured growth data.
System: UACC-62 melanoma
experiment-description: NCI-60 one-dose screen, 48 h (100 = growth as untreated, 0 = no growth, -100 = all killed)
test-conditions: 10 µM unless noted
Compounds without any hit were thinned out: in the full panel of roughly 83,000, 20% have a hit. The source made the active and inactive calls. Rule for the calls: active = growth percent below 10; inactive = the rest.

compound=COc1cc(/C=C/c2ccnc3ccccc23)cc(OC)c1OC measured_target="UACC-62 melanoma" reported="38.2% (inactive)"

Exercise: Recorded growth of Clc1ccc(Cc2nc3ccccc3s2)cc1 , please.
Solution: 87.7% (inactive)

Exercise: Recorded growth of Cc1ccc(NC2=CC(=O)C(=O)c3ccccc32)cc1 , please.
Solution: -33.9% (active)

The origin of these recorded values is PubChem BioAssay (NCI).
